# system.tested: Toll-like receptor 4 (Mus musculus) (UniProt Q9QUK6)
# Sequence (Q9QUK6 whole entry): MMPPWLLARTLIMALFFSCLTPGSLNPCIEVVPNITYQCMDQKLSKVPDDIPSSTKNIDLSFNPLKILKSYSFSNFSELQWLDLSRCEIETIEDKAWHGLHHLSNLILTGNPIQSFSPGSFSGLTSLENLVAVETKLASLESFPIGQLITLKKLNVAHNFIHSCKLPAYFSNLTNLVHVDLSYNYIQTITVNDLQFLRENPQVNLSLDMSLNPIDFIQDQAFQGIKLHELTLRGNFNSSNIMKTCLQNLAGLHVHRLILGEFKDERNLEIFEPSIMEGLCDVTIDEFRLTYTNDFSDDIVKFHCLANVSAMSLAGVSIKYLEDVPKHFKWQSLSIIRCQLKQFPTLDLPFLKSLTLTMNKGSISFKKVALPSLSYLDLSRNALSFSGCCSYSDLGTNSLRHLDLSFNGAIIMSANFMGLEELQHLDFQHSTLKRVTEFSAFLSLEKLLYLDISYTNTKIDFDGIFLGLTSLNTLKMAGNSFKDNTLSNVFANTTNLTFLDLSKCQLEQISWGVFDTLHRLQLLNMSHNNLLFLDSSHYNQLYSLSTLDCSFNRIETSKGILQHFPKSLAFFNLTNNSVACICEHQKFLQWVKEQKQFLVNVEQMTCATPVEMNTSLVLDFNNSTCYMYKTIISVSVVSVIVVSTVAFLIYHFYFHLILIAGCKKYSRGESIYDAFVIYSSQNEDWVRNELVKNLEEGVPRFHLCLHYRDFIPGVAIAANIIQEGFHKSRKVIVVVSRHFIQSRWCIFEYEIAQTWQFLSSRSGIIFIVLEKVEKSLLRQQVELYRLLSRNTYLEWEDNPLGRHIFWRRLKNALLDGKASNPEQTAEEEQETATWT
# assay.details: Activation of TLR4 in C57BL/6 mouse BMDC cells assessed as AUC of IP10 release at 5 uM after 18 hrs by ELISA relative to N-cyclohexyl-2-(4-oxo-3-phenyl-4,5-dihydro-3H-pyrimido[5,4-b]indol-2-ylthio)acetamide
# Format: cell-based
observed.property: Activity (%)

(a) O=C(CSc1nc2c3ccccc3nc-2c(O)n1-c1ccccc1)NCC1CCCO1 (stereo not drawn)
(b) NC(=O)Cn1c2ccccc2c2nc(SCC(=O)NC3CCCCC3)n(-c3ccccc3)c(=O)c21
Inquiry: Between item a and item b , which reported Activity is smaller? Field: selected label. Fill in the label of the entry you choose.
Reply text: b
